measured on: Cyclin-dependent kinase 10 (Homo sapiens) (UniProt Q15131)
Sequence (Q15131 whole entry): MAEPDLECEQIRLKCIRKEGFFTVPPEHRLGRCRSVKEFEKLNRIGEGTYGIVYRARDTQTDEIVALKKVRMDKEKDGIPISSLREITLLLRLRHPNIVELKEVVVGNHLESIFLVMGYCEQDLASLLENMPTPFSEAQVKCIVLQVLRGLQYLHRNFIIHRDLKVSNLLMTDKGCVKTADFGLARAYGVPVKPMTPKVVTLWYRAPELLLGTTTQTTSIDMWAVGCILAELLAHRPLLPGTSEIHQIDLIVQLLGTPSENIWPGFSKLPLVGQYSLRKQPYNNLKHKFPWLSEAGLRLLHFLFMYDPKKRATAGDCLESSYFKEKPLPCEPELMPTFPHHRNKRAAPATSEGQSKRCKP
assay text: Inhibition of CDK10 in human PC3 cell lysates at 30 uM using desthiobiotin-tagged ATP probe AX9989 followed by trypsinization by LC/MS analysis
assay conditions: PC-3
reported metric: inhibition (%)

c1ccc2c(c1)nc(NC1CCCCC1)c1nccn12 37.2

(A) c1ccc(CCNc2nc3ccccc3n3ccnc23)cc1
(B) O[C@H]1CC[C@H](Nc2nc3ccccc3n3ccnc23)CC1
Request: Hi there! Just curious which has the higher inhibition between A and B . Identify your pick by its label.
Result: B

* * *

# inhibition annotations
measured on: UniProt:P12931
Sequence (P12931 2-536 limits assumed): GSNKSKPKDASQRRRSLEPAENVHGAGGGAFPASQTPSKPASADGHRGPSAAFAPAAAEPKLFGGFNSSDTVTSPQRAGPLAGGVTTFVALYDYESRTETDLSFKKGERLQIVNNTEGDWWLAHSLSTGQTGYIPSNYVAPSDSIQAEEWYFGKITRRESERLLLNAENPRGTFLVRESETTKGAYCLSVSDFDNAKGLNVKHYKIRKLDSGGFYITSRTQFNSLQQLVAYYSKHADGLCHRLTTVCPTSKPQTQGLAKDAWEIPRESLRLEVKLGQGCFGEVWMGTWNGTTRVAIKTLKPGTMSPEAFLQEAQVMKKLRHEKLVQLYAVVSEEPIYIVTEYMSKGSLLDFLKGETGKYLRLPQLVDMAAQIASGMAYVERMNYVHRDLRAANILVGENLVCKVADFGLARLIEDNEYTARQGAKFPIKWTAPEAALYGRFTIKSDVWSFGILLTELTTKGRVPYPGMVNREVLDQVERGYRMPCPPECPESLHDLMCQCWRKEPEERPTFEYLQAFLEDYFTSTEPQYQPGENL
assay text: Inhibition of SRC in human PC3 cell lysates at 10 uM using desthiobiotin-tagged ATP probe AX9989 followed by trypsinization by LC/MS analysis
assay conditions: PC-3

O=C(O)c1ccc2nc(N[C@H]3CC[C@H](O)CC3)c3nccn3c2c1 < 35%
O=C(N[C@H](CO)c1ccccc1)c1ccc2nc(N[C@H]3CC[C@H](O)CC3)c3nccn3c2c1 < 35%
CC(C)(NC(=O)c1ccc2nc(N[C@H]3CC[C@H](O)CC3)c3nccn3c2c1)c1ccccc1 < 35%
C[C@H](NC(=O)c1ccc2nc(N[C@H]3CC[C@H](O)CC3)c3nccn3c2c1)c1ccccc1 < 35%
O=C(NC1(Cc2ccc(F)cc2)CC1)c1ccc2nc(N[C@H]3CC[C@H](O)CC3)c3nccn3c2c1 < 35%
O=C(NC1(c2ccc(F)cc2)CC1)c1ccc2nc(N[C@H]3CC[C@H](O)CC3)c3nccn3c2c1 < 35%
O=C(NC1(c2ccccc2)CCC1)c1ccc2nc(N[C@H]3CC[C@H](O)CC3)c3nccn3c2c1 < 35%
CC[C@@H](NC(=O)c1ccc2nc(N[C@H]3CC[C@H](O)CC3)c3nccn3c2c1)c1ccccc1 < 35%

Request: Given O=C(NC1(c2ccccc2)CC1)c1ccc2nc(N[C@H]3CC[C@H](O)CC3)c3nccn3c2c1 , state its recorded inhibition.
Result: < 35%

Request: Given CCC[C@@H](NC(=O)c1ccc2nc(N[C@H]3CC[C@H](O)CC3)c3nccn3c2c1)c1ccccc1 , state its recorded inhibition.
Result: < 35%

Request: Given NC(=O)c1ccc2nc(N[C@H]3CC[C@H](O)CC3)c3nccn3c2c1 , state its recorded inhibition.
Result: < 35%

Request: Given C[C@@H](NC(=O)c1ccc2nc(N[C@H]3CC[C@H](O)CC3)c3nccn3c2c1)c1ccccc1 , state its recorded inhibition.
Result: < 35%

Where do these numbers come from? They come from ChEMBL document CHEMBL2417377.
